Test system: HL-60(TB) leukemia
Experiment: NCI-60 one-dose screen, 48 h
Conditions: 10 µM unless noted
Compounds without any hit were thinned out: in the full panel of roughly 83,000, 20% have a hit. Calls of active or inactive are those of the source. Rule for the calls: active = growth percent below 10; inactive = the rest.
Classes used: active, inactive

COMPOUND: CC12CCC3C4(C)COC(c5ccccc5Cl)OC4CCC3(C)C1CC(C1=CCOC1=O)O2 (configuration not stated)
TEST_SYSTEM: HL-60(TB) leukemia
LABEL_VALUE: inactive
--
COMPOUND: COc1ccc(C(=S)N2CCN(c3cccc(C)c3)CC2)cc1OC
TEST_SYSTEM: HL-60(TB) leukemia
LABEL_VALUE: inactive
--
COMPOUND: CC1(C)CC(=O)C2=C(C1)N(c1ccc(F)cc1F)C(N)=C(C#N)C2c1cc(Br)ccc1F (configuration not stated)
TEST_SYSTEM: HL-60(TB) leukemia
LABEL_VALUE: inactive
--
COMPOUND: COc1ccc(-c2cc(-c3cc(OC)c(OC)c(OC)c3)c(C#N)c(=O)n2CCCCC(=O)NO)cc1
TEST_SYSTEM: HL-60(TB) leukemia
LABEL_VALUE: inactive
--
COMPOUND: NC(=O)NS(=O)(=O)c1ccc(N2N=C(C(F)(F)F)CC2c2cc(C(F)(F)F)cc(C(F)(F)F)c2)cc1 (configuration not stated)
TEST_SYSTEM: HL-60(TB) leukemia
LABEL_VALUE: inactive
--
COMPOUND: O=c1[nH]nc(-c2ccccc2)c2c(-c3ccccc3)onc12
TEST_SYSTEM: HL-60(TB) leukemia
LABEL_VALUE: active
--
COMPOUND: N[C@H]1CCC[C@@H]1NCCCCN1C(=O)c2cccc3cccc(c23)C1=O
TEST_SYSTEM: HL-60(TB) leukemia
LABEL_VALUE: inactive

---

Test system: HL-60(TB) leukemia
Test: NCI-60 one-dose screen, 48 h (100 = growth as untreated, 0 = no growth, -100 = all killed)
Conditions: 10 µM unless noted
Compounds without any hit were thinned out: in the full panel of roughly 83,000, 20% have a hit.
Entry flag: T if growth reaches 30%; F if it does not.

MOLECULE: O=c1n(CC2CO2)c(=O)n(CC2CO2)c(=O)n1CC1CO1 (stereo not given)
LABEL_VALUE: F

MOLECULE: CCOC(=O)N1CCc2c(sc3c2C(=O)N[C@H](c2ccc(OC)cc2)N3)C1
LABEL_VALUE: T

MOLECULE: CCCc1cc(C(N)=S)ccn1
LABEL_VALUE: T

MOLECULE: Cc1cc2nc3c4cc(Cl)ccc4n(CCN(C)C)c3nc2cc1C
LABEL_VALUE: F

MOLECULE: Nc1ccc(C(=O)/C=C/c2ccccc2)cc1
LABEL_VALUE: F

---

Test system: HL-60(TB) leukemia
Assay: NCI-60 one-dose screen, 48 h (100 = growth as untreated, 0 = no growth, -100 = all killed)
Details: 10 µM unless noted
Description: Growth inhibition of the HL-60(TB) human tumor cell line is measured as a screen for anti-cancer activity. Cells are grown in 96 well plates and exposed to the test compound for 48 hours. Compounds are tested at a single concentration, which is 10^-5 M for most compounds. The reported endpoint is percent growth (GI% or GIPRCNT), where numbers from 0 - 100% represent growth inhibition, and numbers from -100% - 0 represent cell death. For example, a value of 40 represents 60% growth inhibition. […]
About 83,000 compounds went through this panel and 20% of them were active in at least one assay; those are over-represented in the sample as a whole.
The entries below come with measured growth values attached.
OBSERVATION_TYPE: growth (%)

COMPOUND: COc1cccc(/C=C2\SC(=Nc3ccc(NC(C)=O)cc3)NC2=O)c1OC
OBSERVATION_TYPE: growth
VALUE: 101
//
COMPOUND: CCOC(=O)C1CCc2c(ccc3ccccc23)N1CCC#N (centres undefined)
OBSERVATION_TYPE: growth
VALUE: 110
//
COMPOUND: CCCCC1=C(Br)C(=O)c2nc(C)ccc2C1=O
OBSERVATION_TYPE: growth
VALUE: 77
//
COMPOUND: COc1cc(/C=N/Nc2ccccc2F)cc(OC)c1OC
OBSERVATION_TYPE: growth
VALUE: 90.1

---

Tested on: NCI-H226 lung
Experiment: NCI-60 one-dose screen, 48 h (100 = growth as untreated, 0 = no growth, -100 = all killed)
Settings: 10 µM unless noted
About 83,000 compounds went through this panel and 20% of them were active in at least one assay; those are over-represented in the sample as a whole.

COMPOUND: CNC(C)Cc1ccccc1 (stereo not drawn) (tested in a mixture with another compound)
TEST_SYSTEM: NCI-H226 lung
growth (%): 99.5
--
COMPOUND: CCCCNCCc1ccccn1
TEST_SYSTEM: NCI-H226 lung
growth (%): 110
--
COMPOUND: C=CCN1C(=O)C(CC)(CCC(C)C)C(=O)NC1=S (stereo not drawn)
TEST_SYSTEM: NCI-H226 lung
growth (%): 104

---

System: HL-60(TB) leukemia
Assay: NCI-60 one-dose screen, 48 h (100 = growth as untreated, 0 = no growth, -100 = all killed)
Conditions: 10 µM unless noted
Compounds without any hit were thinned out: in the full panel of roughly 83,000, 20% have a hit.

COMPOUND: CCc1cc2n(n1)-c1ncc(C(=O)OC)cc1Oc1ccccc1-2
TEST_SYSTEM: HL-60(TB) leukemia
growth, %: 105
--
COMPOUND: CC(C)(C)OC(=O)NC(CSCc1ccccc1)C(=O)ON1C(=O)CCC1=O (configuration not stated)
TEST_SYSTEM: HL-60(TB) leukemia
growth, %: 70.9
--
COMPOUND: CC(C)c1ccc(-c2cnc3nonc3n2)cc1
TEST_SYSTEM: HL-60(TB) leukemia
growth, %: -18.3
--
COMPOUND: C#Cc1ccc(-n2c(/C=C/c3ccc4ccccc4c3)nc3ncccc3c2=O)cc1
TEST_SYSTEM: HL-60(TB) leukemia
growth, %: -2.99
--
COMPOUND: C[C@H]1[C@H](C)CC[C@]2(C(=O)N3CCN(C)CC3)CC[C@]3(C)C(=CC[C@@H]4[C@@]5(C)C/C(=C/c6cccnc6)C(=O)C(C)(C)[C@@H]5CC[C@]43C)[C@H]12
TEST_SYSTEM: HL-60(TB) leukemia
growth, %: -54.4
--
COMPOUND: CCOC(=O)c1cc(N)nc2ccccc12
TEST_SYSTEM: HL-60(TB) leukemia
growth, %: 104
--
COMPOUND: CC(C)=CCc1cc(O)cc2c1OC(C=C(C)C)C1=C2C(=O)C2=C(C1=O)S(=O)(=O)CCN2 (configuration not stated)
TEST_SYSTEM: HL-60(TB) leukemia
growth, %: -31.5
--
COMPOUND: O=C1CC(c2ccc3c(c2)OCO3)c2ncn(-c3ccc(Cl)cc3)c2N1 (configuration not stated)
TEST_SYSTEM: HL-60(TB) leukemia
growth, %: -9.97
--
COMPOUND: Cn1cc(-c2nc(-c3c[nH]c4ncccc34)cs2)c2cc(Br)ccc21
TEST_SYSTEM: HL-60(TB) leukemia
growth, %: 79.1
--
COMPOUND: O=C1Nc2ccccc2C12C=C(c1ccccc1)Nc1c2c(-c2ccccc2)nn1-c1ccccc1 (configuration not stated)
TEST_SYSTEM: HL-60(TB) leukemia
growth, %: 5.77
--
COMPOUND: COc1cc(NC(=O)Nc2cnc(Nc3ccc(N4CCOCC4)cc3)nc2Oc2ccc(C(F)(F)F)cc2)cc(OC)c1
TEST_SYSTEM: HL-60(TB) leukemia
growth, %: 96.4
--
COMPOUND: CC1CC(O)CC(C)(C)C1.CC1CC(O)CC(C)(C)C1.CC1CC(O)CC(C)(C)C1.CC1CC(O)CC(C)(C)C1.[Ti] (configuration not stated)
TEST_SYSTEM: HL-60(TB) leukemia
growth, %: 104

---

System: HS 578T breast
Assay: NCI-60 one-dose screen, 48 h
Conditions: 10 µM unless noted
Protocol: Growth inhibition of the HS 578T human tumor cell line is measured as a screen for anti-cancer activity. Cells are grown in 96 well plates and exposed to the test compound for 48 hours. Compounds are tested at a single concentration, which is 10^-5 M for most compounds. The reported endpoint is percent growth (GI% or GIPRCNT), where numbers from 0 - 100% represent growth inhibition, and numbers from -100% - 0 represent cell death. For example, a value of 40 represents 60% growth inhibition. […]
Compounds without any hit were thinned out: in the full panel of roughly 83,000, 20% have a hit. Active and inactive are the calls of the source. How the source made its calls: active means growth percent below 10; inactive means the rest.
Classes used: yes for active, no for inactive

MOLECULE: C[C@]12CC[C@H]3[C@@H](C[C@@H]4N=C(c5ccc(O)cc5)S[C@@]45C[C@H](O)CC[C@]35C)[C@@H]1CC[C@@H]2O
LABEL_VALUE: yes
--
MOLECULE: CC(C)(C)NCC(O)c1ccccc1Cl (configuration not stated)
LABEL_VALUE: yes
--
MOLECULE: COc1ccc2c(c1)NC1=C(C(=O)OC1)C2c1cc(OC)c(OC)c(OC)c1 (configuration not stated)
LABEL_VALUE: no
--
MOLECULE: O=C(O)CC(Br)C(=O)CBr (configuration not stated)
LABEL_VALUE: no
--
MOLECULE: Cc1cc(C)nc(C)c1.[Cl][Hg][Cl]
LABEL_VALUE: no
--
MOLECULE: CC[C@@H](C)/C=C(C)/C=C/C(=O)c1c(O)c(-c2ccc(O)cc2)cn(O)c1=O
LABEL_VALUE: no
--
MOLECULE: CC1(C)N=C(N)N=C(N)N1c1ccc(OCCCCOc2ccc(S(=O)(=O)F)cc2)c(Cl)c1
LABEL_VALUE: no

Entry source: PubChem BioAssay (NCI)
